Tested On: GDP-bound KRAS protein (aa 1-169), containing both G12C and C118A amino acid substitutions (Homo sapiens, UniProt P01116, C118A/G12C)
Sequence (P01116 1-169 isoform P01116-2 G12C/C118A): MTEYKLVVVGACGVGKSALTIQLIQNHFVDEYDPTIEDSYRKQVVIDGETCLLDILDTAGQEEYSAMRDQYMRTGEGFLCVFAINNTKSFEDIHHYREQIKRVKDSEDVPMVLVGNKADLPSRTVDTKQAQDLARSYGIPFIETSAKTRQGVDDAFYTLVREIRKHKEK
Procedure Details: Coupled nucleotide exchange assay (SOS-mediated, AlphaScreen)
Format: biochemical
Protocol Conditions: 5 min compound pre-incubation
Listing: Coupled exchange IC50 (5 min) of selected compounds

Examples with their reported Coupled exchange IC50 (5 min) follow.
{"Compound": "C=CC(=O)N1CCN(c2cc(=O)n(CC(C)(C)C)c3nc(-c4ccccc4F)c(Cl)cc23)[C@@H](C)C1", "Coupled exchange IC50 (5 min)": "14.2 | nda μM"}
{"Compound": "C=CC(=O)N1CCN(c2nc(=O)n(-c3ccccc3C(C)C)c3cc(Br)c(Cl)cc23)[C@@H](C)C1 (single isomer, unassigned)", "Coupled exchange IC50 (5 min)": "1.66 µM"}
{"Compound": "C=CC(=O)N1CCN(c2nc(=O)n(-c3ccccc3C(C)C)c3nc(-c4cc(N)ccc4Br)c(Cl)cc23)[C@@H](C)C1", "Coupled exchange IC50 (5 min)": "0.125 | nda μM"}
{"Compound": "C=CC(=O)N1CCN(c2nc(=O)n(-c3c(C)cnn3C(C)(C)C)c3nc(-c4ccccc4F)c(Cl)cc23)[C@@H](C)C1 (single isomer, unassigned) [Example 55-38-2]", "Coupled exchange IC50 (5 min)": "0.133 | nda μM"}
{"Compound": "C=CC(=O)N1CCN(c2nc(=O)n(-c3cncnc3C3(C)CC3)c3nc(-c4c(O)cccc4F)c(Cl)cc23)[C@@H](C)C1", "Coupled exchange IC50 (5 min)": "0.133 | nda μM"}
{"Compound": "C=CC(=O)N1CCN(c2nc(=O)n(-c3c(C)cccc3CC)c3nc(-c4c(O)cccc4F)c(F)cc23)[C@@H](C)C1 (single isomer, unassigned) [Example 57-14-2]", "Coupled exchange IC50 (5 min)": "1.8 | nda μM"}
{"Compound": "C=CC(=O)N1CCN(c2nc(=O)n(-c3c(C)ncnc3C)c3nc(-c4c(O)cccc4F)c(Cl)cc23)[C@@H](C)C1", "Coupled exchange IC50 (5 min)": "0.779 | nda μM"}
{"Compound": "C=CC(=O)N1CCN(c2nc(=O)n(-c3ccccc3C3(C)CC3)c3nc(Cl)c(Cl)cc23)[C@@H](C)C1", "Coupled exchange IC50 (5 min)": "5.45 | nda μM"}

-- ask Would you mind telling me what Coupled exchange IC50 (5 min) value was observed for C=CC(=O)N1CCN(c2nc(=O)n(-c3c(C)ccnc3C(C)C)c3nc(-c4ccccc4F)c(C)cc23)[C@@H](C)C1 (single isomer, unassigned) [Example 74-2-1] ?
-- reply 0.26 | nda μM

# credit: patent US11090304B2
